# Assay text: COS7 lysate on small-molecule microarray, probe aHis, 635 nm (AID 1123);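 also: z-score combines 667nm fluorescence intensity with signal-to-noise per printed compound spot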
# Run parameters: COS7 cell lysate, fluorescence, higher = more signal
Please enter YES where composite z-score is greater than or equal to 0.4, and NO where it is lower.

## Input // inclusive: composite z-score at least 0.4? input: COC(=O)[C@@H]1CC[C@H](C)[C@@H](c2ccc(C)cc2)N1C(=O)c1ccc(C=NOC[C@@H](C)[C@H](OCc2ccccc2)C(C)C)cc1
## Output YES

## Input // inclusive: composite z-score at least 0.4? input: CCOC(=O)NN=C1C[C@@H](O)[C@@H](O)[C@@H]2[C@@H]3C(=O)N(Cc4ccc5c(c4)OCO5)C(=O)[C@@H]3CC[C@H]12
## Output YES

## Input // inclusive: composite z-score at least 0.4? input: Cc1ccc(S(=O)(=O)N[C@H]2COC(=O)CC=C[C@@H](C)COC(=O)CC=C[C@@H]2C)cc1
## Output NO

## Input // inclusive: composite z-score at least 0.4? input: C[n+]1ccc(-c2ccc(CO)cc2)cc1
## Output NO

## Input // inclusive: composite z-score at least 0.4? input: CCCNC(=O)OC[C@H]1O[C@H](CCON=C(C)CCC(=O)OC[C@H]2O[C@H](c3ccccc3)C=C[C@@H]2Oc2ccc(OC)cc2)C=C[C@@H]1Oc1ccc(OC)cc1
## Output NO

## Input // inclusive: composite z-score at least 0.4? input: CC[C@@H](c1ccccc1)n1c(=O)n2n(c1=O)[C@H]1[C@H](O)[C@@H]3O[C@@H]3C(=NOC[C@@H](O)COCc3ccco3)[C@H]1CC2
## Output NO

## Input // inclusive: composite z-score at least 0.4? input: COc1cccc([C@H]2Oc3ccc(OC)cc3C(=NOC(C)CN3CCCCc4nc(C)c(C)cc43)[C@@H]2O)c1 (stereo not given in full)
## Output YES

## Input // inclusive: composite z-score at least 0.4? input: O=C1CCCC=C1C(O)CCOC(c1ccccc1)(c1ccccc1)c1ccccc1 (stereo not given)
## Output NO

## Input // inclusive: composite z-score at least 0.4? input: COc1ccc(O[C@H]2C=C[C@@H](c3ccccc3)O[C@@H]2CON=C(C)C)cc1
## Output NO

## Input // inclusive: composite z-score at least 0.4? input: COC(=O)CC=C[C@@H](C)[C@@H]1C=C[C@H](O)[C@@H](CO)O1
## Output NO

## Input // inclusive: composite z-score at least 0.4? input: COC(=O)CC=C[C@H](C)[C@@H](OCc1cccc(Br)c1)[C@@H](C)[C@H](OC)C1CCCCC1
## Output NO

## Input // inclusive: composite z-score at least 0.4? input: CC(=O)OC[C@H]1O[C@H](C#Cc2ccccc2)C=C[C@@H]1OC(C)=O
## Output NO

## Input // inclusive: composite z-score at least 0.4? input: CC(CCN1CCCCc2nc(C)c(C)cc21)=NOC[C@@H](C)[C@H](OCc1ccccc1)C(C)C
## Output NO

## Input // inclusive: composite z-score at least 0.4? input: CC(C)CON=C1C[C@@H](O)[C@@H](O)[C@@H]2[C@@H]3C(=O)N(C(C)(C)C)C(=O)[C@@H]3CC[C@H]12
## Output YES

## Input // inclusive: composite z-score at least 0.4? input: C[C@@H](c1ccccc1)N1C(=O)[C@H]2[C@H]3[C@H](O)[C@H](O)CC(=NO[C@@H]4O[C@H](CO)[C@@H](O)[C@H](O)[C@H]4O)[C@H]3CC[C@H]2C1=O
## Output NO

## Input // inclusive: composite z-score at least 0.4? input: Cc1ccc(S(=O)(=O)NC(CCc2ccccc2)CC(=O)C(C)(C)C)cc1 (stereo not given)
## Output NO

## Input // inclusive: composite z-score at least 0.4? input: CC(C)=CCCC(C)=CCON=C1C[C@@H](O)[C@@H](O)[C@@H]2[C@@H]3C(=O)N(C(C)(C)C)C(=O)[C@@H]3CC[C@@H]12
## Output NO

## Input // inclusive: composite z-score at least 0.4? input: COc1ccc(COC(=O)NN=C2C[C@@H](O)[C@@H](O)[C@@H]3[C@@H]4C(=O)N(c5ccc(F)cc5F)C(=O)[C@@H]4CC[C@H]23)cc1
## Output NO

## Input // inclusive: composite z-score at least 0.4? input: C[C@@H](c1ccccc1)N1C(=O)[C@H]2[C@H]3[C@H](O)[C@H](O)CC(=NOCc4ccccc4)[C@H]3CC[C@H]2C1=O
## Output YES

## Input // inclusive: composite z-score at least 0.4? input: CC(CCN1CCCc2nc(C)c(C)cc21)=NOC(C)CN1CCCCc2nc(C)c(C)cc21 (stereo not given)
## Output YES

## Input // inclusive: composite z-score at least 0.4? input: CC(C)CON=C1C[C@@H](O)[C@@H](O)[C@@H]2[C@@H]3C(=O)N(c4ccc(F)cc4F)C(=O)[C@@H]3CC[C@H]12
## Output YES

## Input // inclusive: composite z-score at least 0.4? input: Cn1c(=O)n2n(c1=O)[C@H]1[C@H](O)[C@@H]3O[C@@H]3C(=NOCc3ccccc3)[C@H]1CC2
## Output YES

## Input // inclusive: composite z-score at least 0.4? input: COC(=O)CC=C[C@@H](C)[C@@H](C=NO[C@@H](C)c1cn([C@H](CO)Cc2ccccc2)nn1)NS(=O)(=O)c1ccc(C)cc1
## Output NO

## Input // inclusive: composite z-score at least 0.4? input: CC(CCC(=O)OC[C@H]1O[C@H](C#Cc2ccccc2)C=C[C@@H]1Oc1ccc(C)cc1)=NO[C@H](C)c1cn([C@H](CO)Cc2ccccc2)nn1
## Output YES

## Input // inclusive: composite z-score at least 0.4? input: CO[C@@H]1COC(=O)[C@@H](C)COC(=O)[C@@H](C)NC(=O)CC=C[C@@H]1C
## Output NO

## Input // inclusive: composite z-score at least 0.4? input: CCOC(=O)NN=C1C[C@@H](O)[C@@H](O)[C@@H]2[C@@H]3C(=O)N(Cc4ccccc4)C(=O)[C@@H]3CC[C@H]12
## Output NO

## Input // inclusive: composite z-score at least 0.4? input: CC[C@@H](c1ccccc1)n1c(=O)n2n(c1=O)[C@H]1[C@H](O)[C@@H]3O[C@@H]3C(=O)[C@H]1CC2
## Output NO

## Input // inclusive: composite z-score at least 0.4? input: CCOC(=O)[C@H](Cc1ccccc1)NC(=O)CCC1CC(OC(=O)NCCc2ccc(F)cc2)CC2(CCCC(COC(=O)NCC3CCCCC3)O2)O1 (stereo not given in full)
## Output YES
